# System: pLai RLuc reporter virus
# ASSAY EXPLANATION: microbe, parasite or virus in culture
# Type: cell-based, HIV
# CONDITION INFO: Human immunodeficiency virus 1, 72 h, read-out: Antiviral Serum Shift RLuc CCM, CCM (RPMI media, 10% FBS, 1% P/S), 72-h incubation
What pEC50 was measured for each of the following?
Numbers only, as −log10 of the molar value.

{"columns": ["MOLECULAR STRING", "ASSAYED TARGET", "pEC50"],
 "data": [
  ["O=C(NCc1ccc(F)cc1F)c1cn2c(c(O)c1=O)C(=O)N1CCCC3(CC3)[C@H]2C1", "pLai RLuc reporter virus", 9.64],
  ["O=C(NCc1c(F)cc(F)cc1F)c1cn2c(c(O)c1=O)C(=O)N1CCC[C@@H]3C[C@]32C1", "pLai RLuc reporter virus", 9.65],
  ["O=C(NCc1c(F)cc(F)cc1F)c1cn2c(c(O)c1=O)C(=O)N1CC=C(F)C[C@H]2C1", "pLai RLuc reporter virus", 9.27]
]}

// below: pEC50 requested for another compound
The recorded pEC50 for O=C(NCc1c(F)cc(F)cc1F)c1cn2c(c(O)c1=O)C(=O)N1CCCC[C@]2(CF)C1 is 9.93

* * *

# Test system: pLai RLuc reporter virus
# ASSAY EXPLANATION: microbe, parasite or virus in culture
# Type: cell-based, HIV
# CONDITION INFO: Human immunodeficiency virus 1, 72 h, read-out: Antiviral Serum Shift RLuc CCM, CCM (RPMI media, 10% FBS, 1% P/S), 72-h incubation
PROPERTY MEASURED: EC50 (nM)
Give bare numbers, in nM.

Provide EC50 for all items below, preserving their order.
1. O=C(NCc1ccc(F)c(Cl)c1F)c1cn2c(c(O)c1=O)C(=O)N1Cc3cc(F)c(F)cc3C[C@@H]2C1
2. O=C(NCc1c(F)cc(F)cc1F)c1cn2c(c(O)c1=O)C(=O)N1CCC=C(F)[C@H]2C1 (single isomer, unassigned)
3. O=C(NCc1c(F)cc(F)cc1F)c1cn2c(c(O)c1=O)C(=O)N1CCCC[C@@H]2C1
4. O=C(NCc1cccc(F)c1F)c1cn2c(c(O)c1=O)C(=O)N1CCCC[C@H]2C1

[3.93, 0.473, 0.354, 0.368]

* * *

What CC50 at 5 days was measured for each of the following?
# ASSAY EXPLANATION: Cytotoxicity assay in MT-4 cells
# Type: cell-based, human
# CONDITION INFO: human, uninfected MT-4 cells, 5 days incubation; read-out: CC50
Answers are plain numbers, in µM.

Provide CC50 at 5 days for all items below, preserving their order.
1. O=C(NCc1c(F)cc(F)cc1F)c1cn2c(c(O)c1=O)C(=O)N1CCOC[C@H]2C1
2. C[C@H]1CC(F)C[C@H]2CN1C(=O)c1c(O)c(=O)c(C(=O)NCc3c(F)cc(F)cc3F)cn12 (stereo partly shown)
3. CC1=CC[C@H]2CN(C1)C(=O)c1c(O)c(=O)c(C(=O)NCc3c(F)cc(F)cc3F)cn12
4. C[C@@H]1CO[C@H](C)[C@H]2CN1C(=O)c1c(O)c(=O)c(C(=O)NCc3c(F)cc(F)cc3F)cn12

1: 37.2; 2: 37.2; 3: 24.1; 4: 25.9

* * *

# Tested on: pLai RLuc reporter virus
# ASSAY EXPLANATION: microbe, parasite or virus in culture
# Assay type: cell-based, HIV
# CONDITION INFO: Human immunodeficiency virus 1, 72 h, read-out: Antiviral Serum Shift RLuc CCM, CCM (RPMI media, 10% FBS, 1% P/S), 72-h incubation
PROPERTY MEASURED: EC50 (nM)
One number for each entry, in nM.

Some solved entries appear below for comparison.
{"columns": ["COMPOUND", "EC50 [nM]"],
 "data": [
  ["O=C(NCc1c(F)cc(F)cc1F)c1cn2c(c(O)c1=O)C(=O)N1CCc3cc(Cl)ccc3[C@@H]2C1", 0.392],
  ["O=C(NCc1c(F)cc(F)cc1F)c1cn2c(c(O)c1=O)C(=O)N1CC(F)CC[C@H]2C1 (stereo partly shown)", 0.43],
  ["C[C@@H]1CO[C@H](C)[C@H]2CN1C(=O)c1c(O)c(=O)c(C(=O)NCc3ccc(F)cc3F)cn12", 0.589],
  ["O=C(NCc1c(F)cc(F)cc1F)c1cn2c(c(O)c1=O)C(=O)N1C[C@H]2CCC(F)(F)C1", 0.85],
  ["C[C@@H]1[C@H]2CCCCN1C(=O)c1c(O)c(=O)c(C(=O)NCc3ccc(F)cc3F)cn12", 0.28],
  ["O=C(NCc1c(F)cc(F)cc1F)c1cn2c(c(O)c1=O)C(=O)N1CCCC[C@H]2C1", 0.353]
]}

// below: EC50 requested for another compound
The recorded EC50 for O=C(NCc1ccc(F)cc1F)c1cn2c(c(O)c1=O)C(=O)N1CC2CCc2ccccc21 (stereo not shown) is 0.917

* * *

# Test system: pLai RLuc reporter virus
# ASSAY EXPLANATION: microbe, parasite or virus in culture
# Format: cell-based, HIV
# CONDITION INFO: Human immunodeficiency virus 1, 72 h, read-out: Antiviral Serum Shift RLuc CCM, CCM (RPMI media, 10% FBS, 1% P/S), 72-h incubation
Classes by EC50: class 0: < 300 pM; class 1: ≥ 300 pM and < 500 pM; class 2: ≥ 500 pM

Example cases with answers are listed next.
{"columns": ["MOLECULE", "DISCRETE LABEL"],
 "data": [
  ["O=C(NCc1c(F)cc(F)cc1F)c1cn2c(c(O)c1=O)C(=O)N1CCC[C@H](O)C[C@H]2C1", "class 2"],
  ["O=C(NCc1c(F)cc(F)cc1F)c1cn2c(c(O)c1=O)C(=O)N1CCCC(F)(F)[C@H]2C1 (single isomer, unassigned)", "class 0"]
]}

Class label required: O=C(NCc1c(F)cc(F)cc1F)c1cn2c(c(O)c1=O)C(=O)N1CCCC(CF)C2C1 (single isomer, unassigned) class 2

* * *

What pEC50 was measured for each of the following?
# System: pLai RLuc reporter virus
# ASSAY EXPLANATION: microbe, parasite or virus in culture
# Type: cell-based, HIV
# CONDITION INFO: Human immunodeficiency virus 1, 72 h, read-out: Antiviral Serum Shift RLuc CCM, CCM (RPMI media, 10% FBS, 1% P/S), 72-h incubation
One number for each entry, as −log10 of the molar value.

Some solved entries appear below for comparison.
{"columns": ["COMPOUND", "pEC50"],
 "data": [
  ["O=C1CC[C@H]2CN(C1)C(=O)c1c(O)c(=O)c(C(=O)NCc3c(F)cc(F)cc3F)cn12 [Example 78]", 8.71],
  ["O=C(NCc1ccc(F)c(Cl)c1F)c1cn2c(c(O)c1=O)C(=O)N1CCCC(F)(F)[C@H]2C1 (single isomer, unassigned) [Example 117-1]", 9.48],
  ["O=C(NCc1c(F)cc(F)cc1F)c1cn2c(c(O)c1=O)C(=O)N1CCC[C@H](Cl)[C@H]2C1 (single isomer, unassigned) [Example 72-1]", 9.55],
  ["O=C(NCc1ccc(F)cc1F)c1cn2c(c(O)c1=O)C(=O)N1CCCC3(CC3)[C@@H]2C1 [Example 57-2]", 9.40],
  ["O=C(NCc1c(F)cc(F)cc1F)c1cn2c(c(O)c1=O)C(=O)N1CC[C@@H](O)CC[C@H]2C1 [Example 83-1]", 8.09],
  ["O=C(NCc1ccc(F)c(Cl)c1F)c1cn2c(c(O)c1=O)C(=O)N1CCCC[C@H]2C1 [Example 51]", 9.67]
]}

Provide pEC50 for all items below, preserving their order.
1. O=C(NCc1ccc(F)cc1F)c1cn2c(c(O)c1=O)C(=O)N1CCCC[C@@H]2C1 (single isomer, unassigned) [Example 25-1]
2. CC1CCCN2CC1n1cc(C(=O)NCc3ccc(F)cc3F)c(=O)c(O)c1C2=O (centres unmarked) [Example 17-1b]
3. O=C(NCc1c(F)cc(F)cc1F)c1cn2c(c(O)c1=O)C(=O)N1CCCC[C@@]2(CF)C1 [Example 163-1]

1. 9.38
2. 9.59
3. 10.17

Provide pEC50 for all items below, preserving their order.
1. C[C@H]1CCCN2CC1n1cc(C(=O)NCc3c(F)cc(F)cc3F)c(=O)c(O)c1C2=O (some centres unmarked) [Example 190]
2. O=C(NCc1c(F)cc(F)cc1F)c1cn2c(c(O)c1=O)C(=O)N1CCC=C(F)[C@@H]2C1 (single isomer, unassigned) [Example 75-1]
3. C[C@@H]1CC[C@H](C)N2C[C@H]1n1cc(C(=O)NCc3ccc(F)cc3F)c(=O)c(O)c1C2=O [Example 175]
4. C[C@@H]1CCC[C@H]2CN1C(=O)c1c(O)c(=O)c(C(=O)NCc3ccc(F)cc3F)cn12 [Example 52-1]
5. O=C(NCc1ccc(F)c(Cl)c1F)c1cn2c(c(O)c1=O)C(=O)N1CCC=C[C@H]2C1 [Example 171]

9.36
9.23
9.39
9.61
9.41
